- Tested on: T. rubrum conidial germination
- EXPERIMENT: T. rubrum conidia germination assay
- Assay type: cell-based, Trichophyton rubrum
- EXPERIMENTAL_PARAMETERS: in cellulo screen of small GTPase inhibitors
ATTRIBUTE_MEASURED: Effect on conidial germination in T. rubrum

INSERT INTO results (compound, result) VALUES
  ('O=c1cc(CN2CCOCC2)occ1OCCCCCSc1ccnc2cc(C(F)(F)F)ccc12 [EHT1864]', 'hindered'),
  ('CCN(CC)CCCC(C)Nc1nc(C)cc(Nc2ccc3nc(C)cc(N)c3c2)n1 (stereo not shown) [NSC23766]', 'hindered'),
  ('Cc1cc2cc(Nc3ccnc(Nc4ccc5[nH]c(C)cc5c4)n3)ccc2[nH]1 [AZA1]', 'hindered');

###

# pIC50 per entry
- System: T. rubrum conidial germination
- EXPERIMENT: T. rubrum conidia germination assay
- Type: cell-based, Trichophyton rubrum
- EXPERIMENTAL_PARAMETERS: overnight incubation at 28°C in Sabouraud medium, calcofluor white staining
# reply with the number alone; pIC50 is -log10 of concentration in mol/L

INSERT INTO measurements (compound, attribute_measured, quantitative_result) VALUES
  ('COc1ccc(C2CC(c3ccccc3)=NN2c2ccc(S(N)(=O)=O)cc2)cc1 (stereo not shown) [ML-141]', 'pIC50', 5.77);

Task: Could you tell me which pIC50 is on file for OCCNC1CCCc2c1[nH]c1ccc(-c3ccccc3)cc21 (stereo not shown) [CASIN] ?
Output: 4.70

###

- System: T. rubrum conidial germination
- EXPERIMENT: T. rubrum conidia germination assay
- Format: cell-based, Trichophyton rubrum
- EXPERIMENTAL_PARAMETERS: Trichophyton rubrum; overnight incubation at 28°C in Sabouraud medium, calcofluor white staining
ATTRIBUTE_MEASURED: pIC50
Scale: pIC50 equals -log10([C]), with [C] in mol/L.

INSERT INTO assay_data (molecule, target_or_test_system, quantitative_result) VALUES
  ('O=C(c1ccccc1)c1ccc2n1CCC2C(=O)O (stereo not drawn) [Ketorolac]', 'T. rubrum conidial germination', 3.44),
  ('CCn1c2ccccc2c2cc(Nc3ccnc(NCCCN4CCOCC4)n3)ccc21 [EHop-016]', 'T. rubrum conidial germination', 4.35);

Task: Look at this molecule and give its reported pIC50. Cc1cc2cc(Nc3ccnc(Nc4ccc5[nH]c(C)cc5c4)n3)ccc2[nH]1 [AZA1]
Output: 3.90

Task: # pIC50 lookup, item O=c1cc(CN2CCOCC2)occ1OCCCCCSc1ccnc2cc(C(F)(F)F)ccc12 [EHT1864]
Output: 4.80

Task: // lookup pIC50 for CCN(CC)CCCC(C)Nc1nc(C)cc(Nc2ccc3nc(C)cc(N)c3c2)n1 (stereo not drawn) [NSC23766]
Output: 3.19
